Details: buffer; pH 7.4; 200.0 µM
solubility kinetic reference
State the answer as a number, implicitly in µg/mL.

CCN(Cc1nc(-c2ccc(Cl)cc2)no1)CC1CCCO1 (stereo unspecified) ... 25.8
COc1ccc(NC(=O)c2cc3ccccc3cc2O)cc1 ... 1.5

Continue with the compound presented below.
Exam item: Please indicate solubility kinetic recorded for `O=C(O/N=C(/c1ccccc1)c1ccncc1)c1cccc(F)c1`
Marked response: 2.1

====

solubility kinetic reference
Settings: buffer; pH 7.4; 200.0 µM
State the answer as a number, implicitly in mg/mL.

Here are 5 compounds together with their reported answers.
Cc1ccc(C)c(N2C(=O)CC(Cc3ccc(Cl)cc3)C2=O)c1 (stereo not given) ... 0.0176
O=C(/C=C/c1ccccc1)Oc1cccc2cccnc12 ... 0.0202
O=C(COC(=O)CCC(=O)c1ccc(Cl)cc1)NCc1ccc(F)cc1 ... 0.0064
CC1CCCCN1C(=O)C1COc2ccccc2O1 (stereo not given) ... 0.0355
COc1ccc(-c2cccc(C(=O)N3CCOCC3)c2)cc1 ... 0.04

Exam item: Please indicate solubility kinetic recorded for `Cc1ccc(/C=C/C(=O)NCCc2cccc(Cl)c2)o1`
Marked response: 0.0051

Exam item: Please indicate solubility kinetic recorded for `CCN=C1S/C(=C\c2cc(Cl)c(OC)c(OC)c2)C(=O)N1CC`
Marked response: 0.0008

====

solubility kinetic reference
Conditions: buffer; pH 7.4; 200.0 µM
State the answer as a number, implicitly in µg/mL.

ON=C1c2ccccc2-c2ccccc21 ... 1.3

Exam item: Please indicate solubility kinetic recorded for `CN1CCc2c(sc(/N=C/c3cc(C(C)(C)C)ccc3O)c2C#N)C1`
Marked response: 3.4

Exam item: Please indicate solubility kinetic recorded for `O=C(CN1CCCC1)Nc1ccc(Cl)cc1C(F)(F)F`
Marked response: 22.3

Exam item: Please indicate solubility kinetic recorded for CCCCC(=O)N(Cc1ccc(F)cc1)C1CCS(=O)(=O)C1 (stereo not drawn)
Marked response: 46.9

Exam item: Please indicate solubility kinetic recorded for `O=C(Nc1ccc(Br)cc1)c1ccc2ncsc2c1`
Marked response: 7.9

Exam item: Please indicate solubility kinetic recorded for `N=C(N)N1CCN(Cc2ccccc2)CC1.O=S(=O)(O)O`
Marked response: 6.7

Exam item: Please indicate solubility kinetic recorded for `COc1ccc(-c2cc(C(=O)N(C)Cc3nc4ccccc4c(=O)[nH]3)c3ccccc3n2)cc1OC`
Marked response: 13.2

Exam item: Please indicate solubility kinetic recorded for Cc1ccc(N2C(=O)c3ccccc3C2C(=O)c2ccc(C)c(C)c2O)cc1 (stereo not drawn)
Marked response: 10.6

Exam item: Please indicate solubility kinetic recorded for CC(=O)OC1CC(c2cc(C(C)(C)C)c(O)c(C(C)(C)C)c2)=NO1 (stereo not drawn)
Marked response: 7.7

Exam item: Please indicate solubility kinetic recorded for `Cc1ccnc(NCc2cccc3ccccc23)c1.Cl`
Marked response: 15.8

Exam item: Please indicate solubility kinetic recorded for `O=C(c1ccncc1)c1ccc(NC(=O)c2cccs2)cc1`
Marked response: 45.9

Exam item: Please indicate solubility kinetic recorded for `Cc1ccc(C(=O)NCCC(=O)N2CCCC2)cc1`
Marked response: 39

Exam item: Please indicate solubility kinetic recorded for `CS(=O)(=O)NCCNc1ccc(C(F)(F)F)cc1[N+](=O)[O-]`
Marked response: 30.3

Exam item: Please indicate solubility kinetic recorded for `O=C(c1cccc([N+](=O)[O-])c1)c1ccc2c(c1)C(=O)NC2=O`
Marked response: 6.3

Exam item: Please indicate solubility kinetic recorded for Cc1ccc(CNC(=O)C2CCCN(c3nc(C)cc(C)n3)C2)cc1 (stereo not drawn)
Marked response: 0.6

Exam item: Please indicate solubility kinetic recorded for `CN(CC(=O)Nc1cccc(F)c1)CC(=O)Nc1cccc2ccccc12`
Marked response: 15.4

Exam item: Please indicate solubility kinetic recorded for Cc1ccc(CC2CC(=O)N(c3nc4ccccc4s3)C2=O)cc1 (stereo not drawn)
Marked response: 10.3

Exam item: Please indicate solubility kinetic recorded for `Cc1ccccc1NC(=O)CSc1nc2ccccc2c(=O)n1C`
Marked response: 3

Exam item: Please indicate solubility kinetic recorded for `Cn1c(=O)n(C)c2cc(NC(=O)c3ccc(F)cc3)ccc21`
Marked response: 15.5

Exam item: Please indicate solubility kinetic recorded for `CSc1ccc(CN2CCN(C(=O)Cc3ccccc3)CC2)cc1`
Marked response: 28.9

Exam item: Please indicate solubility kinetic recorded for `Cc1c(C(=O)c2ccc(F)cc2F)c2ccccn2c1CCC#N`
Marked response: 44.4

Exam item: Please indicate solubility kinetic recorded for `Cc1nc(C)c(-c2csc(Nc3ccccn3)n2)s1`
Marked response: 10.2

Exam item: Please indicate solubility kinetic recorded for `COC(=O)c1cccnc1NC(=S)NC(C)C`
Marked response: 7.1

Exam item: Please indicate solubility kinetic recorded for `O=C(Nc1cc([N+](=O)[O-])ccc1Cl)c1cccnc1`
Marked response: 26.4

====

Conditions: buffer; pH 7.4; 200.0 µM
Returns Yes if the recorded solubility kinetic is greater than or equal to 0.03 mg/mL, and No otherwise.

Worked examples follow.
O=C(COc1ccc(Oc2ccccc2)cc1)NC1CCS(=O)(=O)C1 (centres undefined) ... Yes
CCOC(=O)/C(N=Nc1ccc(C(=O)O)cc1[N+](=O)[O-])=C(\C)O ... Yes
CC1Nc2ccc(C(=O)NC3CCCCC3)cc2NC1=O (centres undefined) ... No
Cc1cc(C)c(C(=O)COC(=O)CN2C(=O)NC3(CCCC3)C2=O)cc1C ... Yes
N#C/C(=C\c1c[nH]c2ccc(Br)cc12)c1ccccn1 ... No
COc1ccc2nc(C)cc(N3CCC(C(N)=O)CC3)c2c1 ... Yes

Exam item: Identify whether the reported solubility kinetic of the following compound is 0.03 mg/mL or greater: `Cl.N#C/C(=C\c1ccccc1)C(=O)NCCN1CCOCC1`
Marked response: Yes

Exam item: Identify whether the reported solubility kinetic of the following compound is 0.03 mg/mL or greater: CC1CCc2c(sc(/N=C/c3cccnc3)c2C(N)=O)C1 (centres undefined)
Marked response: No

Exam item: Identify whether the reported solubility kinetic of the following compound is 0.03 mg/mL or greater: `CN1C(=O)c2cccc3c(S(=O)(=O)Nc4ccccc4F)ccc1c23`
Marked response: No

Exam item: Identify whether the reported solubility kinetic of the following compound is 0.03 mg/mL or greater: C=CCn1c(-c2ccc(Cl)cc2)cnc1SC(C)C(N)=O (centres undefined)
Marked response: No

Exam item: Identify whether the reported solubility kinetic of the following compound is 0.03 mg/mL or greater: `O=C(OCc1ccc(Br)cc1)c1cccnc1`
Marked response: Yes

====

Conditions: buffer; pH 7.4; 200.0 µM
solubility kinetic reference
State the answer as a number, implicitly in µg/mL.

Here are 5 molecules together with their reported answers.
COc1ccc(Cc2nc3ccccc3[nH]c2=O)cc1 ... 4.7
Cc1cccc2c1N(CCOc1ccccc1)C(=O)C2=O ... 3.4
COc1ccc(C(=O)Cn2cnc3ccccc3c2=O)c(OC)c1 ... 41.7
Cc1ccc(C(=O)OCC(=O)NCc2ccco2)cc1C ... 12.8
Cc1csc(NC(=O)c2cc3ccccc3o2)n1 ... 16

Exam item: Please indicate solubility kinetic recorded for `O=C(NCN1CCOCC1)c1cnccn1`
Marked response: 30.6

Exam item: Please indicate solubility kinetic recorded for `CCc1cc(C(=O)c2ccc(OC)cc2)c(N)s1`
Marked response: 20.9

====

Conditions: buffer; pH 7.4; 200.0 µM
endpoint: solubility kinetic (µg/mL)
State the answer as a number, implicitly in µg/mL.

Exam item: Please indicate solubility kinetic recorded for `O=c1cc(CO)[nH]cc1OCc1ccccc1`
Marked response: 34.4

Exam item: Please indicate solubility kinetic recorded for `CCCCCCNc1nc(Cl)nc(NC(C)(C)CO)n1`
Marked response: 3.1

Exam item: Please indicate solubility kinetic recorded for `O=C(COC(=O)c1cccnc1Cl)NC12CC3CC(CC(C3)C1)C2`
Marked response: 50.1

====

solubility kinetic reference
Conditions: buffer; pH 7.4; 200.0 µM
State the answer as a number, implicitly in µg/mL.

Here are 3 compounds together with their reported answers.
COC(=O)CSc1ncnc2scc(-c3ccccc3)c12 ... 11.2
COc1ccc(NC(=O)c2cc(-c3cccs3)on2)cc1 ... 0.3
O=C(COc1ccc([N+](=O)[O-])cc1)Nc1ccccc1C(=O)NC1CC1 ... 1.3

Exam item: Please indicate solubility kinetic recorded for `Clc1cccc(C2Nc3cccc4cccc(c34)N2)c1Cl`
Marked response: 0.5

Exam item: Please indicate solubility kinetic recorded for `COCCNC(=O)Cn1cc(C=C2C(=O)NC(=O)NC2=O)c2ccccc21`
Marked response: 6.3

Exam item: Please indicate solubility kinetic recorded for `O=C(CSC1=NCCN1)NC(c1ccccc1)c1ccccc1`
Marked response: 44

Exam item: Please indicate solubility kinetic recorded for Cc1ccccc1S(=O)(=O)NCC1CCCO1 (configuration not stated)
Marked response: 27.1

====

Details: buffer; pH 7.4; 200.0 µM
solubility kinetic reference
State the answer as a number, implicitly in µg/mL.

CC(=O)c1c(C)[nH]c(C(=O)Nc2cccc(C#N)c2)c1C ... 10.8
O=C1c2ccccc2C(=O)N1C1CCCCC1 ... 1.3
O=C(NCC(=O)N1CCN(c2ccccc2O)CC1)c1ccccc1 ... 49.4

Exam item: Please indicate solubility kinetic recorded for `CCCOc1ccccc1/C=C(\C#N)C(=O)Nc1cccnc1`
Marked response: 6.8

Exam item: Please indicate solubility kinetic recorded for `COc1cccc(CNC2CCCCCCC2)c1OC`
Marked response: 31.6

Exam item: Please indicate solubility kinetic recorded for O=C(Nc1ccccc1)N1CCc2c([nH]c3ccccc23)C1C(F)(F)F (configuration not stated)
Marked response: 1.8

Exam item: Please indicate solubility kinetic recorded for CCC(C)c1ccccc1N=Cc1ccc2c(c1)OCO2 (configuration not stated)
Marked response: 7.1
